Assay: GFP-Q80 aggregate reduction, neuronal-like cells, cell-based, NGF-treated PC12, GFPQ80 (AID 1614);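 note: lower means fewer inclusions and 0 means no inclusions at all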
Conditions: PC12 NGF-treated GFP-polyQ80 inclusion reduction
Peptide text beside a SMILES is read from it.
property-name: inclusion score
API note: the answer field is a bare number with no unit suffix.

CC1(C)S[C@@H]2[C@H](NC(=O)[C@H](NC(=O)N3CCNC3=O)c3ccccc3)C(=O)N2C1C(=O)O (some centres not stated)
2
O=C(Cc1cccs1)NC1C(=O)N2C(C(=O)[O-])=C(C[n+]3ccccc3)CSC12 (configuration not stated)
2
CC(=O)OCC(=O)[C@@]1(O)CC[C@H]2C3CCC4=CC(=O)CCC4(C)[C@@]3(F)[C@@H](O)CC21C (some centres not stated)
2
NCCNC(=O)c1ccc(Cl)cc1
2
C[C@]12CCC3c4ccc(OC(=O)CCC(=O)O)cc4CCC3C1CCC2=O (some centres not stated)
2
NC[C@@H]1O[C@H](OC2[C@@H](O)[C@H](O[C@@H]3[C@H](N)[C@@H](O)C[C@H](N)[C@H]3O[C@H]3O[C@H](CO)[C@@H](O)[C@H](O)[C@H]3N)O[C@@H]2CO)[C@H](N)[C@@H](O)[C@@H]1O (some centres not stated)
2
NC[C@@H]1O[C@H](O[C@H]2[C@@H](O)[C@H](O[C@@H]3[C@@H](O)[C@H](N)C[C@H](N)[C@H]3O[C@@H]3O[C@H](CO)[C@@H](O)C[C@H]3N)O[C@@H]2CO)[C@H](N)[C@@H](O)[C@@H]1O[C@H]1O[C@H](CO)[C@@H](O)[C@H](O)[C@@H]1O
2
C1CCN2C[C@@H]3CC(CN4CCCC[C@@H]34)[C@H]2C1
2
NCCCCC(N)C(=O)NC(Cc1c[nH]c2ccccc12)C(=O)NC(CCCCN)C(=O)O (stereo not drawn) (H-Lys-Trp-Lys-OH; configuration not given here)
2
CC12CC[C@@H]3c4ccc(O)cc4CCC3[C@@H]1CCC2=O (some centres not stated)
2

stdin: Which measured inclusion score value corresponds to Fc1ccc(C(c2ccccc2)(c2ccccc2F)n2ccnc2)cc1 (configuration not stated) ?
stdout: 2

stdin: Which measured inclusion score value corresponds to NCCCCC(N)C(=O)NCC(=O)NC(Cc1cnc[nH]1)C(=O)NC(CCCCN)C(=O)O (configuration not stated) (H-KGHK-OH; configuration not given here) ?
stdout: 2
